measurement-protocol: TOX21_p53_BLA_p5_viability: Viability Assessment in the Tox21 HCT-116 p53 Agonism Beta-lactamase Assay, Phase 5 (AID 2283600)
Results filed as inconclusive are left out. The source made the active and inactive calls. Rule for the calls: active = hit-call score of the fitted dose curve at least 0.9, where 1 is the maximum; inconclusive = response in the unintended direction; inactive = score below 0.9.
Outcomes: active, inactive

compound: Cc1cc(-c2ccc(N=Nc3c(S(=O)(=O)O)cc4cc(S(=O)(=O)O)cc(N)c4c3O)c(C)c2)ccc1N=Nc1c(S(=O)(=O)O)cc2cc(S(=O)(=O)O)cc(N)c2c1O
class-label: inactive
--
compound: CN(CC1(C)CCCO1)S(=O)(=O)c1ccc(Cl)c(S(N)(=O)=O)c1 (configuration not stated)
class-label: inactive
--
compound: CC1=C(C(=O)OC(C)C)C(c2cccc([N+](=O)[O-])c2)C(C(=O)OC2CN(C(c3ccccc3)c3ccccc3)C2)=C(N)N1 (configuration not stated)
class-label: active
--
compound: COc1ccccc1OCC(O)COC(N)=O (configuration not stated)
class-label: inactive
--
compound: O=S(=O)(Oc1ccc(Cl)cc1)c1ccccc1
class-label: inactive
--
compound: NS(=O)(=O)c1cc(C2(O)NC(=O)c3ccccc32)ccc1Cl (configuration not stated)
class-label: inactive
--
compound: Nc1ccc(N)c2ccccc12
class-label: active
--
compound: CCCCCC[C@@H](O)C/C=C\CCCCCCCC(=O)O
class-label: inactive
--
compound: CCn1cc(C(=O)O)c(=O)c2cc3c(cc21)OCO3
class-label: inactive
--
compound: CC(=O)O[C@]1(C(C)=O)CC[C@H]2[C@@H]3C=C(C)C4=CC(=O)CC[C@]4(C)[C@H]3CC[C@@]21C
class-label: inactive
--
compound: CNC(=O)c1cc(Oc2ccc(NC(=O)Nc3ccc(Cl)c(C(F)(F)F)c3)cc2)ccn1
class-label: inactive
--
compound: CC(C(=O)O)c1ccc(/C=C2\CCCCC2=O)cc1 (configuration not stated)
class-label: inactive
--
compound: CCO[Si](CCCN)(OCC)OCC
class-label: inactive
--
compound: C[C@@H]1[C@H](O)[C@@H](C)/C=C/C=C/C=C/C=C/C=C/C=C/C=C/[C@H](O[C@@H]2O[C@H](C)[C@@H](O)[C@H](N)[C@@H]2O)C[C@@H]2O[C@](O)(C[C@@H](O)C[C@@H](O)[C@H](O)CC[C@@H](O)C[C@@H](O)CC(=O)O[C@H]1C)C[C@H](O)[C@H]2C(=O)O
class-label: inactive
--
compound: CCCC(=O)O[C@]1(C(=O)COC(=O)CC)[C@@H](C)C[C@H]2[C@@H]3CCC4=CC(=O)C=C[C@]4(C)[C@@]3(F)[C@@H](O)C[C@@]21C
class-label: inactive
--
compound: Cc1cc(O)c2c(c1)C(=O)c1cccc(O)c1C2=O
class-label: inactive
--
compound: O=C1C(=O)c2ccccc2C(O)=C1C1CCC(c2ccc(Cl)cc2)CC1 (configuration not stated)
class-label: inactive
--
compound: Cc1c(C(N)=O)cc([N+](=O)[O-])cc1[N+](=O)[O-]
class-label: inactive
--
compound: O=C1c2ccccc2C(=O)c2cc(Cl)ccc21
class-label: inactive
--
compound: CC(=O)OC(C)(C)Cc1ccccc1
class-label: inactive
--
compound: CC1(CN2CCC(n3c(=O)[nH]c4ccccc43)CC2)OCc2ccccc2-n2cccc21 (configuration not stated)
class-label: inactive
--
compound: CC(=O)NC(Cc1ccccc1)C(=O)O (configuration not stated)
class-label: inactive
